# Tested on: K4 kissing-loop RNA reporter
# protocol-description: apparent KD of K4 kissing-loop reporter; higher = weaker reporter binding
# experimental-conditions: Eterna round: R107; input ligand: theophylline 20 uM
Entry flag: condition met if apparent KD of K4 kissing-loop reporter reaches 200 nM; condition not met if it does not.

>  <chain>
CGACUAGUCUUGCAACCCUAGUCGAUAUGCUAGGAUAUCAGGAAACUGAGAAGGAGUUUACUUGCAGUGAUGUUGCAAGAAUAAU [KL-SSFMN-A10]

>  <target-or-test-system>
K4 kissing-loop RNA reporter;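 note: bound reporter read as fluorescence of individual clusters on recovered sequencing chips by microscopy, with normalized cluster intensities fitted with a binding model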

>  <class>
condition not met

$$$$

Quick check: does GUUACGCAUGGAAGGAGCGCGAAUUUAAUUAGUGAGUGAUGUUCACAUAAAAUAUAUAAUACGCAGGUAGGUCGCCAUGUGUAAC [Ex Arginine B K4 1] have apparent KD of K4 kissing-loop reporter greater than or equal to 200 nM?
condition not met

Quick check: does UAUCUAUGCUCGGCCGCCACUAGGACCGGGAUCUCUCUAGUGAUGUUAGUCUGAUCGGCCGCCACUAGGACCGGGAGUGUAGAUA [KL-SSTryp-B15 #DoubleAptamer] have apparent KD of K4 kissing-loop reporter greater than or equal to 200 nM?
condition not met

----------
# System: MS2 coat protein
# protocol-description: apparent KD of MS2 coat protein; designed switch direction (-1 OFF switch, 1 ON switch): -1; higher = weaker reporter binding
# experimental-conditions: input ligand: microRNA oligo, concentration not stated
Entry flag: Y if apparent KD of MS2 coat protein reaches 30 nM; N if it does not.

Below are worked cases with known answers.
>  <chain>
AUUGGACACUCAGGAUAUCAGGUUCUAUACAUGAGGAUCACCCAUGUGGGCGAACCCAUGAUAGCUGAGAAGGGAGUAAUCCUA [Orxete] (Eterna round: R96, puzzle: Exclusion NG 2)

>  <class>
N

$$$$
>  <chain>
ACAUGUAAUGUAGGAUAUUUUACACAUGAGGAUCACCCAUGUGACCAGAGGCAUUGCUAUGAGUAAAAGAAGGGUAUGUACAUG [Ex NG2 #58] (Eterna round: R96, puzzle: Exclusion NG 2)

>  <class>
N

$$$$
>  <chain>
ACAUGAGGAUCACCCAUGUCCGGCUGGUCCGUCUCGGCUGUCGAGGAUAUAGCUUGGUGUCCGCGCUAGAAGGUGGGAGCCGGC [Aenatbe mod 71] (Eterna round: R96, puzzle: Exclusion NG 3)

>  <class>
Y

$$$$
>  <chain>
AGAGUGCUGCGAGGAUAUACAUGAGGAUCACCCAUGUGGAUCUGUGAGGGAAAACCUCACAGGAUGUAGAAGGCGCAGUACUCA [Mat - Exclusion NG 2 - Mod of JL - D50] (Eterna round: R96, puzzle: Exclusion NG 2)

>  <class>
N

$$$$
>  <chain>
UGUUGUUACGUAGGAUAUGGCCAACAGGCCCUAGGAUAUGCGAAAGCAGAAGGAGCGCCAACAGGCGAGAAGGACGGGUUAACA [pwkr exNG2 2xF7 2xFMN.15] (Eterna round: R96, puzzle: Exclusion NG 2)

>  <class>
Y

$$$$
>  <chain>
CUAGCUAUUGUAGGAUAUCGAUGUGUUUCACAUCGAGAAGGACAUGAGGAUCACCCAUGUGAAGGAUCGUGAGAUCCAAGCUAG [JL ENG1 3.77] (Eterna round: R96, puzzle: Exclusion NG 1)

>  <class>
N

$$$$
>  <chain>
CAGGACAGAGGAUAUACAUAGAUACAGAUUCAUGUAGAACUACAUGAGGAUCACCCAUGUAGAAGGCUGUCCUG [Fiskers Ex 2 - 3] (Eterna round: R96, puzzle: Exclusion 2)

>  <class>
N

$$$$
>  <chain>
CACCUGAACACAGGAUAUCCUACAUGAGGAUCACCCAUGUAAUAAAUGAGAAUUUCGAAUGUAAUGGAGAAGGGUGGAUAAGGC [Ostracism 89 - Jieux - Exclusion NG 2] (Eterna round: R96, puzzle: Exclusion NG 2)

>  <class>
Y

$$$$

Quick check: does AGCGAAUAGCUAGGAUAUGAGAAUAGAUAGAGCUCAGAAGGAGCACAUGAGGAUCACCCAUGUAAAGUCUUGAGGCUGCGUGGU [Prohibition 16 - Jieux - Exclusion NG 1] (Eterna round: R96, puzzle: Exclusion NG 1) have apparent KD of MS2 coat protein greater than or equal to 30 nM?
N

Quick check: does GUCAGGAAUGUAGGAUAUCUGCACGUUUAGUGCAGAGAAGGACAUGAGGAUCACCCAUGUAUAGUAGCUUCGGCUACACCUGAC [ENG1-A2] (Eterna round: R96, puzzle: Exclusion NG 1) have apparent KD of MS2 coat protein greater than or equal to 30 nM?
N

Quick check: does AAUUAUUAUUGAGGAUAUCGUAUUGAAAUAAUAUGAGAAGGCGGGAUAAACAUGAGGAUCACCCAUGUGAGCCUGAUGCUUGUG [Ex NG1 #39] (Eterna round: R96, puzzle: Exclusion NG 1) have apparent KD of MS2 coat protein greater than or equal to 30 nM?
N

Quick check: does AAUAGUUGAGUAGGAUAUGCAUCGACCGGCCGAGCAGAAGGACUCGUGAACUUGAGGAUCACCCAAGUGUCCUCGUUUGCUUGA [Mutated MS2 EX1.16] (Eterna round: R96, puzzle: Exclusion NG 1) have apparent KD of MS2 coat protein greater than or equal to 30 nM?
Y

Quick check: does GCUUGUGGGCAAGGAUAUCCUACGUUGUUCUGGUUCGUGUCUGUCACAUGAGGAUCACCCAUGUGGGAGAAGGUGCAUUUGGUU [Design 60] (Eterna round: R96, puzzle: Exclusion NG 2) have apparent KD of MS2 coat protein greater than or equal to 30 nM?
N

Quick check: does UACAUGAGGAUCACCCAUGUUUUGUCGUGUAUGGUAUUUAUCUAGGAUAUCAAUGUAUUUAGUUAUGAGAAGGAGAAUAUUAAU [JMF's solution 46] (Eterna round: R96, puzzle: Exclusion NG 3) have apparent KD of MS2 coat protein greater than or equal to 30 nM?
Y

Quick check: does CCUAGUUGGUAAGGAUAUCCUACAUUGUUCUGGCCCGGGCAUGCUACAUGAGGAUCACCCAUGUGGGAGAAGGUGCGUCAUCGC [Design 17] (Eterna round: R96, puzzle: Exclusion NG 2) have apparent KD of MS2 coat protein greater than or equal to 30 nM?
Y

Quick check: does AAGAGGCGGACAGGAUAUGGGAAAUUGUAAAGACCAGAAGGGUCGGCGAAAAUACAUGAGGAUCACCCAUGUGAAUCAUGACCA [AK ExNG1-7] (Eterna round: R96, puzzle: Exclusion NG 1) have apparent KD of MS2 coat protein greater than or equal to 30 nM?
Y

Quick check: does GAACUGAAGCAAAGCUUUAGUCGUACAUGAGGAUCACCCAUGUAGGAUAUGGUAGGCAAAGCUUACUAGAAGGACAGAGUGAUC [Mat - Exclusion NG 3 - Mod of JL - D70] (Eterna round: R96, puzzle: Exclusion NG 3) have apparent KD of MS2 coat protein greater than or equal to 30 nM?
Y

Quick check: does GAGUGAAGUGCAGGAUAUCUAGAAGGAAGAAGGAGGAAACAUGAGGAUCACCCAUGUAAUCCAUAAGAGAAGGGCGGAGAGGAG [An ugly monster] (Eterna round: R96, puzzle: Exclusion NG 2) have apparent KD of MS2 coat protein greater than or equal to 30 nM?
N
